Biological target: human GLP-1 receptor (Homo sapiens, UniProt P43220)
Construct: expressed in transfected cells
Sequence (P43220 24-463): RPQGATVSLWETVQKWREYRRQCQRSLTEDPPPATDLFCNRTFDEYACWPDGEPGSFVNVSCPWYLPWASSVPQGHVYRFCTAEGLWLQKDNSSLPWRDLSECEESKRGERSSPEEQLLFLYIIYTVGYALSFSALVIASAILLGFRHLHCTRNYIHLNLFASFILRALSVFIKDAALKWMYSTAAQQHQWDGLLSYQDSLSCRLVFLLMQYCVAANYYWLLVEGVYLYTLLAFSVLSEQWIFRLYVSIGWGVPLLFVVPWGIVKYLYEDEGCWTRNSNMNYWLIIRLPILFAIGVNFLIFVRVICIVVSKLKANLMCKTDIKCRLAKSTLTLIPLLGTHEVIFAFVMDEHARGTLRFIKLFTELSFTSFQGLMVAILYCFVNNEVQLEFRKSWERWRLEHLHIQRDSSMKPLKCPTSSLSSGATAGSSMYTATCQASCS
Test: GLP-1R cAMP Assay
Assay type: cell-based
Settings: cAMP accumulation in CHO cells stably overexpressing the human GLP-1 receptor; 30 min treatment; HitHunter cAMP kit; read-out: EC50
Reported EC50 values follow for various compounds

Observe how each entry below is paired with its result.
N#Cc1ccc(OCc2cc(OC3CCN(Cc4nc5ccc(C(=O)O)cc5n4C[C@@H]4CCO4)CC3)ccn2)c(Cl)c1 : < 50 nM
Cc1ccccc1Oc1cccc(C(=O)N2CCN(Cc3nc4ccc(C(=O)O)cc4n3C[C@@H]3CCO3)CC2)c1 : > 500 nM
O=C(O)c1ccc2nc(CN3CCN(Cc4ccc(COc5ccccc5)o4)CC3)n(C[C@@H]3CCO3)c2c1 : > 500 nM

Kindly consider the entry below.
I am curious: what EC50 value has been reported for "CCn1cncc1Cn1c(CN2CCC(Cc3cccc(COc4ccc(C)cc4Cl)n3)CC2)nc2ccc(C(=O)O)cc21" ?
< 50 nM

====

Target: human GLP-1 receptor (Homo sapiens, UniProt P43220)
Construct: expressed in transfected cells
Test: GLP-1R cAMP Assay
Assay type: cell-based
Settings: cAMP accumulation in CHO cells stably overexpressing the human GLP-1 receptor; 30 min treatment; HitHunter cAMP kit; read-out: EC50
Reported EC50 values follow for various compounds

Item: "Cc1ccc(Nc2cccc(C(=O)N3CCN(Cc4nc5ccc(C(=O)O)cc5n4C[C@@H]4CCO4)CC3)c2)cc1" Test system: human GLP-1 receptor (Homo sapiens, UniProt P43220) Read-out: EC50 Value: ?
> 500 nM

Item: "C[C@H]1C[C@@H](Oc2cccc(COc3ccc(C#N)cc3F)c2)CCN1Cc1nc2ccc(C(=O)O)cc2n1C[C@@H]1CCO1" Test system: human GLP-1 receptor (Homo sapiens, UniProt P43220) Read-out: EC50 Value: ?
< 50 nM

Item: "O=C(O)c1ccc2nc(CN3CCN(C(=O)c4cccc(Oc5ccc(F)cc5)c4)CC3)n(C[C@@H]3CCO3)c2c1" Test system: human GLP-1 receptor (Homo sapiens, UniProt P43220) Read-out: EC50 Value: ?
> 500 nM

Item: "O=C(O)c1ccc2nc(CN3CCN(C(=O)c4ccc(COc5ccc(C6CC6)cc5Cl)o4)CC3)n(C[C@@H]3CCO3)c2c1" Test system: human GLP-1 receptor (Homo sapiens, UniProt P43220) Read-out: EC50 Value: ?
50 to 500 nM

Item: "N#Cc1ccc(OCc2nccc(O[C@@H]3C[C@H]4CC[C@@H](C3)N4Cc3nc4ccc(C(=O)O)cc4n3C[C@@H]3CCO3)n2)c(F)c1" Test system: human GLP-1 receptor (Homo sapiens, UniProt P43220) Read-out: EC50 Value: ?
50 to 500 nM

Item: "CCn1cncc1Cn1c(CN2CCN(C(=O)c3ccc(COc4ccc(Cl)cc4Cl)o3)CC2)nc2ccc(C(=O)O)cc21" Test system: human GLP-1 receptor (Homo sapiens, UniProt P43220) Read-out: EC50 Value: ?
< 50 nM

====

Target: human GLP-1 receptor (Homo sapiens)
Construct: expressed in transfected cells
Assay: GLP-1R cAMP Assay
Assay type: cell-based
Conditions: cAMP accumulation in CHO cells stably overexpressing the human GLP-1 receptor; 30 min treatment; HitHunter cAMP kit; read-out: EC50
MEASURED_PROPERTY: EC50

Cc1ccc(N(C)c2cncc(C(=O)N3CCN(Cc4nc5ccc(C(=O)O)cc5n4C[C@@H]4CCO4)CC3)c2)c(Cl)c1 [Compound 85] : 50 to 500 nM
CCn1cncc1Cn1c(CN2CCC(Oc3ccnc(COc4ccc(Cl)cc4C#N)c3)CC2)nc2ccc(C(=O)O)cc21 [Compound 171] : < 50 nM
O=C(O)c1ccc2nc(CN3CCC(Cc4cccc(COc5ccc(Cl)cc5Cl)c4)CC3)n(Cc3ncco3)c2c1 [Compound 149] : < 50 nM

I am curious: what EC50 value has been reported for Cc1ccc(S(=O)(=O)Nc2cccc(C(=O)N3CCN(Cc4nc5ccc(C(=O)O)cc5n4C[C@@H]4CCO4)CC3)c2)cc1 [Compound 70] ?
> 500 nM

====

Biological target: human GLP-1 receptor (Homo sapiens, UniProt P43220)
Construct: expressed in transfected cells
Assay: GLP-1R cAMP Assay
Format: cell-based
Conditions: cAMP accumulation in CHO cells stably overexpressing the human GLP-1 receptor; 30 min treatment; HitHunter cAMP kit; read-out: EC50
pEC50: −log10 of the molar value.
MEASURED_PROPERTY: pEC50

Cc1ccc(N(C)c2cccc(OC3CCN(Cc4nc5ccc(C(=O)O)cc5n4C[C@@H]4CCO4)CC3)c2)c(Cl)c1 [Example 111] : 6.30 to 7.30
C[C@H]1C[C@@H](Oc2ccnc(COc3cc(F)c(F)cc3F)n2)CCN1Cc1nc2ccc(C(=O)O)cc2n1C[C@@H]1CCO1 [Compound 514] : > 7.30
O=C(O)c1ccc2nc(CN3CCC(Oc4ccnc(COc5ccc(Cl)cc5Cl)c4)CC3)n(C[C@@H]3CCO3)c2c1 [Compound 168] : > 7.30
CN(C)c1cc(C(=O)N2CCN(Cc3nc4ccc(C(=O)O)cc4n3C[C@@H]3CCO3)CC2)ncn1 [Example 1] : 6.30 to 7.30
O=C(O)c1ccc2nc(CN3CCc4[nH]c5ccc(OCc6ccc(Cl)cc6Cl)cc5c4C3)n(C[C@@H]3CCO3)c2c1 [Compound 142] : < 6.30
O=C(O)c1ccc2nc(CN3CCN(C(=O)c4ccc(COc5ccccc5Cl)o4)CC3)n(C[C@@H]3CCO3)c2c1 [Compound 39] : < 6.30

I am curious: what pEC50 value has been reported for CCn1cncc1Cn1c(CN2CCC(Cc3cccc(COc4ccc(Cl)cc4Cl)n3)CC2)nc2ccc(C(=O)O)cc21 [Compound 140] ?
> 7.30

I am curious: what pEC50 value has been reported for Cc1cc(C(=O)O)cc2c1nc(CN1CC[C@H](Oc3ccnc(COc4ccc(C#N)cc4F)c3)C[C@@H]1C)n2C[C@@H]1CCO1 [Compound 503] ?
> 7.30

I am curious: what pEC50 value has been reported for O=C(O)c1ccc2nc(CN3CCC(Oc4cccc(COc5ccc(Cl)cc5Cl)c4)CC3)n(Cc3ccno3)c2c1 [Example 208] ?
> 7.30

I am curious: what pEC50 value has been reported for CCn1cncc1Cn1c(CN2CCN(C(=O)c3cccc(CN(C)c4ccc(C)cc4Cl)c3)CC2)nc2ccc(C(=O)O)cc21 [Compound 77] ?
< 6.30

I am curious: what pEC50 value has been reported for O=C(O)c1ccc2nc(CN3CCC(Oc4ccnc(COc5ccc(Cl)cc5Cl)c4)CC3)n(C[C@H]3CCOC3)c2c1 [Compound 169] ?
> 7.30

I am curious: what pEC50 value has been reported for CCn1cncc1Cn1c(CN2CCC(Oc3cccc(COc4ccc(Cl)cc4F)c3)CC2)nc2ccc(C(=O)O)cc21 [Compound 231] ?
> 7.30

I am curious: what pEC50 value has been reported for Cc1ccc(OCc2ccc(C(=O)N3CCN(Cc4nc5ccc(C(=O)O)cc5n4C[C@@H]4CCO4)CC3)o2)cc1 [Compound 42] ?
< 6.30

I am curious: what pEC50 value has been reported for CCn1cncc1Cn1c(CN2CCC(Oc3ccccc3COc3ccc(Cl)cc3Cl)CC2)nc2ccc(C(=O)O)cc21 [Compound 272] ?
6.30 to 7.30

====

Molecular target: human GLP-1 receptor (Homo sapiens)
Construct: expressed in transfected cells
Experiment: GLP-1R cAMP Assay
Format: cell-based
Conditions: cAMP accumulation in CHO cells stably overexpressing the human GLP-1 receptor; 30 min treatment; HitHunter cAMP kit; read-out: EC50
pEC50: −log10 of the molar value.
MEASURED_PROPERTY: pEC50

Cc1ccc(NCc2cccc(C(=O)N3CCN(Cc4nc5ccc(C(=O)O)cc5n4C[C@@H]4CCO4)CC3)c2)c(Cl)c1 [Compound 80] : < 6.30
O=C(O)c1ccc2nc(CN3CCC(Oc4ccnc(COc5ccc(C6CC6)cc5F)n4)CC3)n(C[C@@H]3CCO3)c2c1 [Compound 475] : > 7.30
O=C(O)c1ccc2nc(CN3CCC(Oc4ccnc(COc5ccc(Cl)cc5CF)c4)CC3)n(C[C@@H]3CCO3)c2c1 [Example 299] : > 7.30
O=C(O)c1ccc2nc(CN3CCN(C(=O)c4ccc(COc5cccc(Cl)c5)o4)CC3)n(C[C@@H]3CCO3)c2c1 [Compound 40] : < 6.30
CCn1cncc1Cn1c(CN2CCC(Oc3ccnc(COc4ccc(Cl)cc4C#N)c3)CC2(C)C)nc2ccc(C(=O)O)cc21 (stereo not shown) [Example 276] : > 7.30
O=C(O)c1ccc2nc(CN3CCC(Oc4ccnc(COc5ccc(Cl)cc5F)n4)CC3)n(C[C@@H]3CCO3)c2c1 [Compound 296] : > 7.30

I am curious: what pEC50 value has been reported for O=C(O)c1ccc2nc(CN3CCC(Cc4ccc(COc5ccc(Cl)cc5Cl)o4)CC3)n(C[C@@H]3CCO3)c2c1 [Example 72] ?
> 7.30
